molecular target: T1, human CD40 antigen (ACROBiosystems) (human, UniProt P25942 21-193); assay: ELISA, coated antigen
T1 construct: Bought antigen coated on ELISA plates; construct not described
T1 sequence (P25942 21-193 limits assumed): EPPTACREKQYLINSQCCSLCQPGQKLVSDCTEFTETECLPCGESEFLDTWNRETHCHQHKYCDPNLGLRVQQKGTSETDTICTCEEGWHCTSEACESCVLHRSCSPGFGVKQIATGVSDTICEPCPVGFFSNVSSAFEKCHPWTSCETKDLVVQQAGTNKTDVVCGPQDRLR
endpoint: pEC50
Worth noting: pEC50 values are minus log10 of concentrations stated in mol/L.

Exercise: Using the record for anti-CD40 monoclonal antibody 1605CD (antibody, human IgG2, kappa, V domains shown) VH: EVQLVESGGGLVQPGGSLRLSCAASGFTFSNYYMSWVRQAPGKGLEWVAFIRNKANAYTTEYAASVKGRFTISRDNSKSTLYLQMNSLRAEDTAVYYCARYGGIRVGWYFDLWGQGTLVTVSS VL: DIQMTQSPSSLSASVGDRVTITCRASQDIRNYLNWYQQKPGKAPKLLIYYTSRLQSGVPSRFSGSGSGTDYTLTISSLQPEDFATYYCQQGQSFPWTFGGGTKVEIKR , report its pEC50.
Key: 10.66
